procedure_details: Water solubility assay
Assay type: physicochemical
condition_parameters: 27 °C, thermodynamic from solid, 1 mg in 1 mL water, read-out: AqS as Log of molar concentration (LogS) (converted)
Quick reference: solubility at 24 h of the listed items.
measurement_kind: solubility at 24 h (µM)

smiles_repr | result_operator | measurement
COC(=O)c1ccccc1C(=O)Nc1nnc(-c2ccc(OC)cc2)s1 | = | 1.35
O=C(O)c1ccccc1C(=O)Nc1nnc(-c2ccc(O)cc2)s1 | = | 83.2
COc1ccc(-c2nnc(NC(=O)c3ccccc3C(=O)O)s2)cc1 | = | 9.33
CCCCOC(=O)c1ccccc1C(=O)Nc1nnc(-c2ccc(OC)cc2)s1 | > | 1
CCOC(=O)c1ccccc1C(=O)Nc1nnc(-c2ccc(OC)cc2)s1 | > | 1
